Target: TbrCatL (Trypanosoma brucei rhodesiense, UniProt Q95PM0)
Construct: Conor Caffrey (University of California San Diego)
Sequence (Q95PM0 entry or part of it): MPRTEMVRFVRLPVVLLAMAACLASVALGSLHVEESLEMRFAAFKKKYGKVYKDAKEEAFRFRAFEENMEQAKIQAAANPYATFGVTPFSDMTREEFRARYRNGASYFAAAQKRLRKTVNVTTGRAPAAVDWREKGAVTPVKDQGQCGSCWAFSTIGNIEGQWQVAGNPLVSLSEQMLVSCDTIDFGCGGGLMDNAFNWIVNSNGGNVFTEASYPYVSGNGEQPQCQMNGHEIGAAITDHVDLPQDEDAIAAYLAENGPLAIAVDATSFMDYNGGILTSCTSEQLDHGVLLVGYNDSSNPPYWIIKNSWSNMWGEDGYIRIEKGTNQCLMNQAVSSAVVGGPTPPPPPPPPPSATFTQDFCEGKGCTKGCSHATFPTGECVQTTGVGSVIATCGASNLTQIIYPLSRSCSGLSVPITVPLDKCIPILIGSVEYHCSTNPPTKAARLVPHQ
Assay: TbrCatL enzymatic inhibition assay (cleavage of fluorogenic substrate Z-FR-AMC);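 also: at 5 µM compound concentration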
Assay type: biochemical
Conditions: 0’ (pre-incubation time); sheet "Screening results"
reported property: TbrCatL 0’ Inhibition (%)
Respond with the bare value in %.

Example compounds with recorded TbrCatL 0’ Inhibition:
>  <compound>
COc1cncc(-c2cncc(N3CCN(c4ccncc4)CC3)n2)c1 [MMV085071]

>  <assay target>
TbrCatL (Trypanosoma brucei rhodesiense, UniProt Q95PM0)

>  <reported value>
-0.1

$$$$
>  <compound>
O=C(Nc1ccccc1)c1ccc(-c2cc3ccncc3cc2OC2CCNCC2)s1 [MMV024035]

>  <assay target>
TbrCatL (Trypanosoma brucei rhodesiense, UniProt Q95PM0)

>  <reported value>
-3

$$$$
>  <compound>
COc1cc(C2=NCCN2)ccc1-n1cc(-c2cccc(C3=NCCN3)c2)nn1 [MMV688474]

>  <assay target>
TbrCatL (Trypanosoma brucei rhodesiense, UniProt Q95PM0)

>  <reported value>
10

$$$$
>  <compound>
Nc1ncnc2c1ncn2[C@@H]1O[C@H](COS(=O)(=O)NC(=O)c2ccccc2O)[C@@H](O)[C@H]1O [MMV687700]

>  <assay target>
TbrCatL (Trypanosoma brucei rhodesiense, UniProt Q95PM0)

>  <reported value>
3

$$$$
>  <compound>
Cc1nn(C)c(C)c1NS(=O)(=O)c1c(Cl)cc(-c2ccnc(N3CCNCC3)c2)cc1Cl [MMV688180]

>  <assay target>
TbrCatL (Trypanosoma brucei rhodesiense, UniProt Q95PM0)

>  <reported value>
-7

$$$$
>  <compound>
O=C(Nc1ccc(N2CCNCC2)nc1)c1oc(-c2ccccc2)nc1C(F)(F)F [MMV024937]

>  <assay target>
TbrCatL (Trypanosoma brucei rhodesiense, UniProt Q95PM0)

>  <reported value>
20

$$$$

Answer with TbrCatL 0’ Inhibition of Nc1nc2cc(-c3cncc(Oc4ccc(F)cc4)c3)ccc2[nH]1 [MMV687248] measured for TbrCatL (Trypanosoma brucei rhodesiense, UniProt Q95PM0).
-0.7

Answer with TbrCatL 0’ Inhibition of CCCn1c(NC(=O)c2ccc3ccccc3n2)nc2ccccc21 [MMV1030799] measured for TbrCatL (Trypanosoma brucei rhodesiense, UniProt Q95PM0).
-8

Answer with TbrCatL 0’ Inhibition of N#Cc1nc(-c2ccccc2F)oc1NCCc1ccccc1 [MMV676384] measured for TbrCatL (Trypanosoma brucei rhodesiense, UniProt Q95PM0).
3.4

###

Target: UniProt:P25779
Experiment: biochemical
Details: 10’ (pre-incubation time); sheet "Screening results"
reported property: Cruzain 10’ Inhibition (%)
Respond with the bare value in %.

Identify the reported Cruzain 10’ Inhibition for the following entry. `CCCn1c(NC(=O)c2ccc3ccccc3n2)nc2ccccc21`
2.4

Identify the reported Cruzain 10’ Inhibition for the following entry. `O=C(C1CCN(c2nnc(-n3cccc3)s2)CC1)N1CCC(Cc2ccccc2)CC1`
2.5

Identify the reported Cruzain 10’ Inhibition for the following entry. `C[C@@H]1[C@H](O)[C@@H](C)/C=C/C=C/C=C/C=C/C=C/C=C/C=C/[C@H](O[C@@H]2O[C@H](C)[C@@H](O)[C@H](N)[C@@H]2O)C[C@@H]2O[C@](O)(C[C@@H](O)C[C@@H](O)[C@H](O)CC[C@@H](O)C[C@@H](O)CC(=O)O[C@H]1C)C[C@H](O)[C@H]2C(=O)O`
10

Identify the reported Cruzain 10’ Inhibition for the following entry. `O=C(Nc1cccc(Cl)c1)c1cnc(N2CCN(c3ccncc3)CC2)c(Cl)c1`
25

Identify the reported Cruzain 10’ Inhibition for the following entry. `OCc1ccc(-c2cncc(Nc3cccc(Cl)c3)c2)cc1`
2.8

Identify the reported Cruzain 10’ Inhibition for the following entry. `Cc1nc(-c2ccccn2)nc(NCCc2ccc(S(C)(=O)=O)cc2)c1Cl`
9

Identify the reported Cruzain 10’ Inhibition for the following entry. `Cc1ccccc1C(=O)N1NC(=Nc2ccccc2)SC1(C)C`
8

###

# key: entry, value: % Cruzain Inhibition (Mean ± SEM) 0.01% Triton X-100
Target: cruzain (Trypanosoma cruzi, UniProt P25779)
Sequence (P25779 123-337 limits assumed): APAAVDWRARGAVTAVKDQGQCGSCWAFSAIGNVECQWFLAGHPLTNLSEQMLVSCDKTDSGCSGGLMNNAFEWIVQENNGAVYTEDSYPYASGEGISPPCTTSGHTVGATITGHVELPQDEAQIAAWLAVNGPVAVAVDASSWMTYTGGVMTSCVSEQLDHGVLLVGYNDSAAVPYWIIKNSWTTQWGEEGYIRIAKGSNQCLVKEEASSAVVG
Test: Aggregation counter-assays: cruzain inhibition at varying Triton X-100 and after pre-incubation with BSA
Assay type: biochemical
Parameters: Cruzain is the truncated, recombinant-expressed cruzipain 1; Brian Shoichet (University of California San Francisco)
Settings: 0.01% Triton X-100; compound µM: MMV687246 12.5, MMV687812 3.125, MMV688179 1.563, MMV688362 3.125, MMV688466 6.25, MMV690028 25

Example compounds with recorded % Cruzain Inhibition (Mean ± SEM) 0.01% Triton X-100:
>  <compound>
N=C(N)Nc1ccc(-c2ccc(-c3ccc(NC(=N)N)cc3Cl)o2)c(Cl)c1 [MMV688179]

>  <reported value>
80 ± 1%

$$$$
>  <compound>
Cn1ccnc1CNCCS(=O)(=O)c1cccc(Nc2ccc(-c3cccc(F)c3)cn2)c1 [MMV688466]

>  <reported value>
32 ± 5%

$$$$
>  <compound>
COc1cc(C2=NCCN2)cc2cc(-c3ccc(C4=NCCN4)cc3)oc12 [MMV688362]

>  <reported value>
41 ± 2%

$$$$

Now for a further compound.
Answer with % Cruzain Inhibition (Mean ± SEM) 0.01% Triton X-100 of CN1CCN(S(=O)(=O)c2ccc(-c3ccc4c(Nc5ccc6nn[nH]c6c5)ccnc4c3)cc2)CC1 [MMV687246] measured for cruzain (Trypanosoma cruzi, UniProt P25779).
51 ± 0%

###

Molecular target: cruzain (Trypanosoma cruzi, UniProt P25779)
Experiment: biochemical
Details: 0’ (pre-incubation time); Pathogen Box screening results
reported property: Cruzain Inhibition 0’
# output: number + unit

Example molecules with recorded Cruzain Inhibition 0’:
>  <molecule>
O=[N+]([O-])c1cn2c(n1)OC[C@@H](OCc1ccc(OC(F)(F)F)cc1)C2 [MMV688755]

>  <assay target>
cruzain (Trypanosoma cruzi, UniProt P25779)

>  <Cruzain Inhibition 0’>
3%

$$$$
>  <molecule>
O=C(Nc1cnc2ccccc2c1)c1cccc(-n2cnnn2)c1 [MMV084864]

>  <assay target>
cruzain (Trypanosoma cruzi, UniProt P25779)

>  <Cruzain Inhibition 0’>
0%

$$$$
>  <molecule>
CC(=O)OC[C@H]1O[C@@H]([S-])[C@H](OC(C)=O)[C@@H](OC(C)=O)[C@@H]1OC(C)=O.CC[PH+](CC)CC.[Au] [MMV688978]

>  <assay target>
cruzain (Trypanosoma cruzi, UniProt P25779)

>  <Cruzain Inhibition 0’>
-20%

$$$$
>  <molecule>
Cc1ccc(-c2cc(C(=O)Nc3cccnc3)c3cc(Br)ccc3n2)cc1 [MMV016838]

>  <assay target>
cruzain (Trypanosoma cruzi, UniProt P25779)

>  <Cruzain Inhibition 0’>
4.3%

$$$$

Identify the reported Cruzain Inhibition 0’ for the following entry. CO[C@@H]1CN(c2ccc(C#CC3(O)CN4CCC3CC4)c(Cc3ccccc3)n2)C[C@H]1O (some centres unmarked) [MMV688415]
-4%

Identify the reported Cruzain Inhibition 0’ for the following entry. CC(=O)N1CCN(c2ccc(Oc3ccc(Cl)cc3O)cc2)CC1 [MMV688330]
-3%

Identify the reported Cruzain Inhibition 0’ for the following entry. CCc1ccccc1-n1c(C)cn2c3c(=O)n(C(C(=O)OC)C(C)C)c(=O)n(C)c3nc12 (centres unmarked) [MMV688550]
-4.3%

Identify the reported Cruzain Inhibition 0’ for the following entry. CCOC(=O)c1noc(N)c1-c1ccccc1 [MMV1236379]
-8%

###

# key: entry, value: TbrCatL Inhibition 0’
Molecular target: TbrCatL (Trypanosoma brucei rhodesiense, UniProt Q95PM0)
Construct: Conor Caffrey (University of California San Diego)
Assay: TbrCatL enzymatic inhibition assay (cleavage of fluorogenic substrate Z-FR-AMC);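 also: at 5 µM compound concentration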
Format: biochemical
Conditions: 0’ (pre-incubation time); Pathogen Box screening results
Respond with the bare value in %.

Example compounds with recorded TbrCatL Inhibition 0’:
>  <compound>
COc1cccc(-c2cc3c(Nc4cccnc4)nccc3[nH]2)c1

>  <reported value>
6

$$$$
>  <compound>
Nc1nccc2ccc(Oc3ccncc3)cc12

>  <reported value>
0.4

$$$$
>  <compound>
CCC(C)NC(=O)c1ccc(NC(=O)C2(c3ccccc3)CCCC2)cc1 (stereo not drawn)

>  <reported value>
-3.2

$$$$

Identify the reported TbrCatL Inhibition 0’ for the following entry. `COc1cccc(-n2nnnc2S(C)(=O)=O)c1`
-11

Identify the reported TbrCatL Inhibition 0’ for the following entry. `O=C(Nc1cnc2ccccc2c1)c1cccc(-n2cnnn2)c1`
-11

Identify the reported TbrCatL Inhibition 0’ for the following entry. `CC(C)(C)c1cnc(NC(=O)c2ccccc2O)s1`
-9

###

# key: entry, value: TbrCatL 0’ Inhibition
Molecular target: TbrCatL (Trypanosoma brucei rhodesiense, UniProt Q95PM0)
Construct: Conor Caffrey (University of California San Diego)
Experiment: TbrCatL enzymatic inhibition assay (cleavage of fluorogenic substrate Z-FR-AMC);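 also: at 5 µM compound concentration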
Format: biochemical
Settings: 0’ (pre-incubation time); sheet "Screening results"
Respond with the bare value in %.

Identify the reported TbrCatL 0’ Inhibition for the following entry. `O=C1O[C@@H](COc2ccon2)CN1c1cc(F)c(C2=CCN(Cc3ccccc3)CC2)c(F)c1`
5.3

Identify the reported TbrCatL 0’ Inhibition for the following entry. `CCN(CC)C(=O)N1CCN(C)CC1`
-0.5

Identify the reported TbrCatL 0’ Inhibition for the following entry. `NS(=O)(=O)c1cncc(-c2ccc3nccc(-c4cn[nH]c4)c3n2)c1`
6

Identify the reported TbrCatL 0’ Inhibition for the following entry. `CS(=O)(=O)N1CCC(Cn2nc(Cc3cccc4ccccc34)c3c(N)ncnc32)CC1`
0.1

Identify the reported TbrCatL 0’ Inhibition for the following entry. `CCn1ncc2c(NC3CCOCC3)c(CNC(=O)c3ccnn3C)c(C)nc21`
-6

Identify the reported TbrCatL 0’ Inhibition for the following entry. `C[C@H](C(N)=O)N1CCCC[C@H]1c1ccc(OCc2cccc(F)c2)cc1`
-3

Identify the reported TbrCatL 0’ Inhibition for the following entry. `CCS(=O)(=O)N(Cc1ccco1)Cc1cc2ccc(C)cc2[nH]c1=O`
8

Identify the reported TbrCatL 0’ Inhibition for the following entry. `CC(C)(CN)c1nc(-c2ccc(Cl)c(O)c2)c(-c2ccnc(N)n2)[nH]1`
7.5

Identify the reported TbrCatL 0’ Inhibition for the following entry. `C[C@]1(COc2ccc(N3CCC(Oc4ccc(OC(F)(F)F)cc4)CC3)cc2)Cn2cc([N+](=O)[O-])nc2O1`
0.7

Identify the reported TbrCatL 0’ Inhibition for the following entry. `O=C(Nc1ccccc1-c1nc2c(C(=O)O)cccc2o1)c1ccccc1`
2.6

Identify the reported TbrCatL 0’ Inhibition for the following entry. `Nc1cccnc1Nc1ccc(Cl)cc1`
11
